Values compiled from patent US20250282736A1.

- Assayed system: hPXR (Homo sapiens (Human))
- Assay remarks: cell-based hPXR agonistic assay
Reported metric: EC50

# compound CCCC(CCC)Oc1ccc(C(C)(C)C)cc1NC(=O)c1nnn(-c2cc(OC)ccc2OC)c1C ; its EC50 = > 30 µM

Just so you know, measured EC50 for COc1ccc(OC)c(-n2nnc(C(=O)Nc3cc(N=C=S)cc(C(C)(C)C)c3)c2C)c1 came out at > 30 µM

For this compound ( CCCCCCCCOc1cc(NC(=O)c2nnn(-c3cc(OC)ccc3OC)c2C)cc(C(C)(C)C)c1 ), measured EC50 is > 30 µM

What the record says about COc1ccc(OC)c(-n2nnc(C(=O)Nc3cccc(N4CCCCC4)c3)c2C)c1 : EC50 is > 30 µM

Entry COc1ccc(C)cc1-n1nnc(C(=O)Nc2ccc(O)c(C(C)(C)C)c2)c1C — recorded EC50 = > 30 µM

Record COC(=O)c1ccc(NC(=O)c2nnn(-c3cc(OC)ccc3OC)c2C)cc1N1CCCC1 , field EC50: > 30 µM

Item: CCCC(CC)Oc1ccc(C(C)(C)C)cc1NC(=O)c1nnn(-c2ccccc2OC)c1C (centres unmarked) | EC50: 0.01 µM

Noted for CCCOc1ccc(C(C)(C)C)cc1NC(=O)c1nnn(-c2cc(OC)ccc2OC)c1C : its EC50 reads > 30 µM

The compound identified as COc1ccc(OC)c(-n2nnc(C(=O)Nc3cc(C(C)(C)C)ccc3OC(=O)c3nnn(-c4cc(OC)ccc4OC)c3C)c2C)c1 registered its EC50 at 0.59 µM

What the record says about COc1ccc(OC)c(-n2nnc(C(=O)Nc3cc(C(C)(C)C)ccc3OCCOCCOCCOCCOCCOCCOc3ccc(C(C)(C)C)cc3NC(=O)c3nnn(-c4cc(OC)ccc4OC)c3C)c2C)c1 : EC50 is > 30 µM

The compound listed as COc1ccc(OC)c(-n2nnc(C(=O)Nc3cc(NCCN)cc(C(C)(C)C)c3)c2C)c1 shows EC50 equal to > 30 µM

====

- Assayed system: UniProt O75469
- Assay remarks: hPXR binding assay
- Measurement conditions: read-out: Binding (IC50/μM); hPXR binding assay
Reported metric: log10(IC50) (log10 of the value in µM)
Please be aware that the numbers have been log10-transformed from IC50 in µM.

Memo: CCCC(C)Oc1ccc(C(C)(C)C)cc1NC(=O)c1nnn(-c2ccccc2OC)c1C (stereo not drawn) , reported log10(IC50): -2.14

Item: COc1ccc(OC)c(-n2nnc(C(=O)Nc3cc(N=C=S)cc(C(C)(C)C)c3)c2C)c1 | log10(IC50): 0.41

For COc1ccc(OC)c(-n2nnc(C(=O)Nc3cc(C(C)(C)C)ccc3OCCCCCCCCI)c2C)c1 the compound record lists log10(IC50) as -0.30

Looking up COc1ccc(OC)c(-n2nnc(C(=O)Nc3ccc(C)cc3)c2C)c1 , I see its log10(IC50) listed as 1.15

The compound COc1ccc(Cl)cc1-n1nnc(C(=O)Nc2cc(N)cc(C(C)(C)C)c2)c1C showed log10(IC50) equal to 0.89

Notebook: COc1ccc(OC)c(-n2nnc(C(=O)Nc3cc(OCCCCCCCCCl)cc(C(C)(C)C)c3)c2C)c1 , log10(IC50) read as -0.24

Kindly note the recorded log10(IC50) for CCCCOc1ccc(C(C)(C)C)cc1NC(=O)c1nnn(-c2cc(OC)ccc2OC)c1C , which is -1.66

Recorded log10(IC50) (compound CCCCOc1ccc(C(C)(C)C)cc1NC(=O)c1nnn(-c2cc(OC)ccc2Br)c1C ): 0.12

Data point: CCCC(CC)Oc1ccc(C(C)(C)C)cc1NC(=O)c1nnn(-c2cc(Cl)ccc2OC)c1C (stereo not drawn) ; log10(IC50) = -1.68

====

- Assayed system: hPXR (Homo sapiens (Human))
- Assay remarks: cell-based hPXR inverse agonistic assay
pIC50: −log10 of the molar value.
Give measured pIC50 for each item. Keep answers brief.

Form field, pIC50 with hPXR (Homo sapiens (Human)), item CCCCOc1ccc(C(C)(C)C)cc1NC(=O)c1nnn(-c2ccccc2OC)c1C [H6] : < 4.52

Summary: CCC(C)Oc1ccc(C(C)(C)C)cc1NC(=O)c1nnn(-c2cc(C)ccc2OC)c1C (stereo not drawn) [G12] , hPXR (Homo sapiens (Human)), pIC50 = < 4.52

The molecule COc1ccc(OC)c(-n2nnc(C(=O)Nc3cc(C(C)(C)C)ccc3N)c2C)c1 [B37] on hPXR (Homo sapiens (Human)): pIC50 was < 4.52

Form: item COc1ccc(-n2nnc(C(=O)Nc3ccc(C)cc3)c2C)cc1 [E7] ; test system hPXR (Homo sapiens (Human)); pIC50: < 4.52

Observed pIC50, hPXR (Homo sapiens (Human)), CCC[C@H](CC)Oc1ccccc1NC(=O)c1nnn(-c2cc(OC)ccc2OC)c1C [M3] : 8.47

Entry CCCCOc1ccc(C(C)(C)C)cc1NC(=O)c1nnn(-c2cccnc2)c1C [H12] under hPXR (Homo sapiens (Human)) had pIC50 of < 4.52

Entry COc1ccc(OC)c(-n2nnc(C(=O)Nc3cccc(N4CCOCC4)c3)c2C)c1 [A14] under hPXR (Homo sapiens (Human)) had pIC50 of < 4.52

Measured pIC50 (hPXR (Homo sapiens (Human))), entry COc1ccc(Cl)cc1-n1nnc(C(=O)Nc2cc(O)cc(C(C)(C)C)c2)c1C [F4] : 6.54

Per the reported hPXR (Homo sapiens (Human)) data, COc1ccc(OC)c(-n2nnc(NC(=O)Nc3cccc(C(C)(C)C)c3)c2C)c1 [K4] has pIC50 of < 4.52

====

- Assayed system: hPXR (Homo sapiens (Human), UniProt O75469)
- Sequence (O75469 whole entry): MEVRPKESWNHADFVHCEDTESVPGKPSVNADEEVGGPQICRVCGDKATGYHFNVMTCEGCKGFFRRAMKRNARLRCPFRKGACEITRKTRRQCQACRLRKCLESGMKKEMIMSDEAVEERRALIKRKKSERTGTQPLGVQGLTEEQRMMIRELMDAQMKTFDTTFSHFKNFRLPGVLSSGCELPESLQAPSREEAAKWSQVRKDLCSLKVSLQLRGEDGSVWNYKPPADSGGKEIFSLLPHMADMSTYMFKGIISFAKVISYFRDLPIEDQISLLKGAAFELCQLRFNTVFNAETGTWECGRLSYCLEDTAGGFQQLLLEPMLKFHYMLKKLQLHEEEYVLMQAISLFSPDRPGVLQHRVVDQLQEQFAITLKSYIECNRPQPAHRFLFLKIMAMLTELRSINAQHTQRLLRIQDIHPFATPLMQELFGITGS
- Assay remarks: cell-based hPXR agonistic assay
Answer each item with its documented EC50.
State the answer as a number, implicitly in µM.

Measured on hPXR (Homo sapiens (Human), UniProt O75469), COc1ccc(OC)c(-n2nnc(C(=O)Nc3ccc(NC(C)=O)c(C(C)(C)C)c3)c2C)c1 [C1] has a documented EC50 of 1.96

Reading of EC50 for COc1ccc(OC)c(-n2nnc(NS(=O)(=O)c3ccc(C(C)(C)C)cc3)c2C)c1 [K7] with hPXR (Homo sapiens (Human), UniProt O75469): 0.39

# value of EC50, hPXR (Homo sapiens (Human), UniProt O75469), item COc1ccc(OC)c(-n2nnc(C(=O)Nc3ccccc3)c2C)c1 [A1] = 24.5

Per the reported hPXR (Homo sapiens (Human), UniProt O75469) data, CCCC(C)Oc1ccc(C(C)(C)C)cc1NC(=O)c1nnn(-c2ccccc2OC)c1C (stereo not drawn) [I2] has EC50 of 0.049

====

- Assayed system: hPXR (Homo sapiens (Human), UniProt O75469)
- Assay remarks: cell-based hPXR agonistic assay
pEC50: −log10 of the molar value.
Kindly state pEC50 for each of the entries shown.

# pEC50 of COc1ccc(OC)c(-n2nnc(C(=O)Nc3cc(OCCCN4CCN(C)CC4)cc(C(C)(C)C)c3)c2C)c1 = < 4.52

pEC50 for COc1ccc(OC)c(-n2nnc(C(=O)Sc3ccc(NC(C)=O)cc3)c2C)c1 is < 4.52

response.value for CCC(C)Oc1ccc(C(C)(C)C)cc1NC(=O)c1nnn(-c2ccccc2OC)c1C (centres unmarked) (field: pEC50) = 7.18

Short answer for COc1ccc(OC)c(-n2nnc(N(S(=O)(=O)c3ccc(C(C)(C)C)cc3)S(=O)(=O)c3ccc(C(C)(C)C)cc3)c2C)c1 : pEC50 was 6.72

// recorded pEC50 for COc1ccc(OC)c(-n2nnc(C(=O)Nc3cc(OCCOCCOCCOCCN)cc(C(C)(C)C)c3)c2C)c1 : < 4.52

Noted for COc1ccc(OC)c(-n2nnc(NC(=O)Nc3ccc(C(C)(C)C)cc3)c2C)c1 : its pEC50 reads 5.47

Quick note, pEC50 for COc1cc(NC(=O)c2nnn(-c3cc(Cl)ccc3OC)c2C)cc(C(C)(C)C)c1 landed at < 4.52

Measured pEC50 of COc1ccc(OC)c(-n2nnc(C(=O)Nc3cc(C(C)(C)C)ccc3OC(C)C)c2C)c1 : < 4.52

====

- Assayed system: hPXR (Homo sapiens (Human))
- Assay remarks: cell-based hPXR inverse agonistic assay
pIC50: −log10 of the molar value.
// N strictly below 6 in pIC50; Y otherwise

Q: Would you say CCCCOc1ccc(C(C)(C)C)cc1NC(=O)c1nnn(-c2cc(OC)ccc2Br)c1C [H10] shows pIC50 at minimum 6?
A: N

Q: Given the entry COc1ccc(OC)c(-n2nnc(C(=O)Nc3cccc(N(C)C)c3)c2C)c1 [A10] , answer whether its pIC50 meets or surpasses 6.
A: N

Q: Dear colleague, could you confirm whether COc1ccc(OC)c(-n2nnc(C(=O)Nc3cc(OCCCCCCCCI)cc(C(C)(C)C)c3)c2C)c1 [D21] has pIC50 at or above 6?
A: Y

Q: Could you verify whether the entry COc1ccc(OC)c(-n2nnc(C(=O)Nc3cc(OCCCN4CCN(C)CC4)cc(C(C)(C)C)c3)c2C)c1 [D18] shows pIC50 of no less than 6?
A: N

Q: State whether the measured pIC50 reaches 6, counting equality as reaching it, for COc1ccc(OC)c(-n2nnc(C(=O)NS(=O)(=O)c3ccc(C(C)(C)C)cc3)c2C)c1 [K5]
A: N

Q: Does the reported pIC50 for COc1ccc(C)cc1-n1nnc(C(=O)Nc2cc(O)cc(C(C)(C)C)c2)c1C [G7] fall at or above the 6 mark?
A: Y

Q: Form field: pIC50 at least 6? Entry: COc1ccc(OC)c(-n2nnc(C(=O)Nc3cc(C(C)(C)C)ccc3OC(C)C)c2C)c1 [B12]
A: Y

Q: Reported pIC50 reaches at least 6 for COc1ccc(OC)c(-n2nnc(S(=O)(=O)Nc3cccc(C(C)(C)C)c3)c2C)c1 [K6] ?
A: N

Q: Could you tell me if the measured pIC50 of COC(=O)CCCOc1cc(NC(=O)c2nnn(-c3cc(OC)ccc3OC)c2C)cc(C(C)(C)C)c1 [D29] reaches 6 or more?
A: Y

Q: Does the reported pIC50 for CCCC(CCC)Oc1ccc(C(C)(C)C)cc1NC(=O)c1nnn(-c2cc(OC)ccc2OC)c1C [B33] fall at or above the 6 mark?
A: Y

Q: State whether the measured pIC50 reaches 6, counting equality as reaching it, for CCCCOc1ccc(C(C)(C)C)cc1NC(=O)c1nnn(-c2ccc(OC)cc2)c1C [E9]
A: N

Q: Kindly determine if pIC50 recorded for COc1ccc(OC)c(-n2nnc(C(=O)Nc3cc(NC(=O)CCC(=O)O)cc(C(C)(C)C)c3)c2C)c1 [D6] is above or exactly 6.
A: N

Q: In plain terms: is recorded pIC50 at least 6 for COc1ccc(-n2nnc(C(=O)Nc3cccc(C)c3)c2C)cc1 [E8] ?
A: N

Q: Is pIC50 for CCCCOc1ccc(C(C)(C)C)cc1NC(=O)c1nnn(-c2ccncc2)c1C [H13] at or above 6?
A: N

Q: Does pIC50 meet or surpass 6 for CCC(CC)Oc1ccc(C(C)(C)C)cc1NC(=O)c1nnn(-c2cc(OC)ccc2OC)c1C [B31] ?
A: Y

Q: hey, is pIC50 for this one >= 6? CCC[C@@H](CC)Oc1ccc(C(C)(C)C)cc1NC(=O)c1nnn(-c2cc(OC)ccc2OC)c1C [M2]
A: Y

Q: Exam item: decide whether the reported pIC50 for CCC[C@H](CC)Oc1ccc(C(C)(C)C)cc1NC(=O)c1nnn(-c2cc(OC)c(F)cc2OC)c1C [M10] is at least 6.
A: Y

Q: Determine whether this compound has pIC50 no lower than 6: CCc1cccc(NC(=O)c2nnn(-c3cc(OC)ccc3OC)c2C)c1 [A8]
A: N

Q: Reported pIC50 at or above 6? CCCCOc1ccc(C(C)(C)C)cc1NC(=O)c1nnn(-c2c(OC)cccc2OC)c1C [H20]
A: N

Q: Identify whether the reported pIC50 of the following compound is 6 or greater: COc1ccc(-n2nnc(C(=O)Nc3ccc(N)c(C(C)(C)C)c3)c2C)cc1 [E3]
A: N

Q: Say whether COc1ccc(OC)c(-n2nnc(C(=O)Nc3ccccc3)c2C)c1 [A1] shows pIC50 of 6 or more.
A: N

Q: API: above_or_equal(metric=pIC50, cutoff=6) for item COc1ccc(OC)c(-n2nnc(C(=O)Nc3cc(OCC(=O)OC(C)(C)C)cc(C(C)(C)C)c3)c2C)c1 [D31]
A: Y

Q: Is the recorded value of pIC50 equal to or greater than 6 for this compound? COc1ccc(OC)c(-n2nnc(C(=O)Nc3cccc(N4CCN(C)CC4)c3)c2C)c1 [A15]
A: N

Q: Answer whether pIC50 of COc1ccc(OC)c(-n2nnc(C(=O)Nc3cccc(C)c3)c2C)c1 [A3] is greater than or equal to 6.
A: N

Q: Check if pIC50 >= 6 (inclusive). Item: COc1ccc(OC)c(-n2nnc(C(=O)Nc3ccnc(C(C)(C)C)c3)c2C)c1 [A7]
A: N

Q: Hi, just wondering whether COc1ccc(OC)c(-n2nnc(C(=O)Nc3cc(C(C)(C)C)ccc3OCCCCN3CCN(C)CC3)c2C)c1 [B22] shows pIC50 of 6 or higher.
A: N

Q: Assess whether reported pIC50 for COc1ccc(OC)c(-n2nnc(C(=O)Nc3cc(C(C)(C)C)ccc3OCCOCCOCCOCCOCCOCCOc3ccc(C(C)(C)C)cc3NC(=O)c3nnn(-c4cc(OC)ccc4OC)c3C)c2C)c1 [B23] sits at 6 or higher.
A: N

Q: Given COc1ccc(OC)c(-n2nnc(C(=O)Nc3cc(C(C)(C)C)ccc3OC(=O)c3nnn(-c4cc(OC)ccc4OC)c3C)c2C)c1 [B3] , state whether its pIC50 is at least 6.
A: N

Q: Hi, just wondering whether CCC[C@H](CC)Oc1ccc(C(C)(C)C)cc1NC(=O)c1nnn(-c2cc(C)c(OC)cc2OC)c1C [M11] shows pIC50 of 6 or higher.
A: N

Q: Given COc1cc(NC(=O)c2nnn(-c3cc(C)ccc3OC)c2C)cc(C(C)(C)C)c1 [G8] , state whether its pIC50 is at least 6.
A: Y

Q: Can COc1ccc(OC)c(-n2nnc(C(=O)Nc3cc(OCCOCCOCCOCCNC(=O)CCCC[C@@H]4SC[C@@H]5NC(=O)N[C@@H]54)cc(C(C)(C)C)c3)c2C)c1 [L1] be said to have pIC50 at or above 6?
A: N

Q: Determine whether this compound has pIC50 no lower than 6: COc1ccc(OC)c(-n2nnc(C(=O)Nc3ccc(CN4CCN(C)CC4)cc3)c2C)c1 [A17]
A: N

Q: Hi team, for CCC[C@H](CC)Oc1ccc(C(=O)Nc2ccc(N3CCN(C(C)=O)CC3)cc2)cc1NC(=O)c1nnn(-c2cc(OC)ccc2OC)c1C [M8] , is the recorded pIC50 at or above 6?
A: Y
